For each record, write down the corresponding solubility kinetic.
- ASSAY METHOD TEXT: Kinetic solubility of compound
- Assay type: physicochemical
- CONDITIONS: read-out: Kinetic_solubility
# output: bare number, implied unit µM

Recorded solubility kinetic (compound CC1(C)OCc2c(Nc3n[nH]c4c(Cl)cccc34)nc(-c3cn[nH]c3C(F)F)nc21 ): 3

Recorded solubility kinetic (compound CC1(C)OCc2c(Nc3n[nH]c4c(C(F)(F)F)cccc34)nc(-c3cn[nH]c3)nc21 ): 3

----------
For each record, write down the corresponding pKi.
- TEST TARGET: Epidermal growth factor receptor (Homo sapiens, UniProt P00533, L858R)
- Sequence (P00533 25-1210 L858R limits assumed): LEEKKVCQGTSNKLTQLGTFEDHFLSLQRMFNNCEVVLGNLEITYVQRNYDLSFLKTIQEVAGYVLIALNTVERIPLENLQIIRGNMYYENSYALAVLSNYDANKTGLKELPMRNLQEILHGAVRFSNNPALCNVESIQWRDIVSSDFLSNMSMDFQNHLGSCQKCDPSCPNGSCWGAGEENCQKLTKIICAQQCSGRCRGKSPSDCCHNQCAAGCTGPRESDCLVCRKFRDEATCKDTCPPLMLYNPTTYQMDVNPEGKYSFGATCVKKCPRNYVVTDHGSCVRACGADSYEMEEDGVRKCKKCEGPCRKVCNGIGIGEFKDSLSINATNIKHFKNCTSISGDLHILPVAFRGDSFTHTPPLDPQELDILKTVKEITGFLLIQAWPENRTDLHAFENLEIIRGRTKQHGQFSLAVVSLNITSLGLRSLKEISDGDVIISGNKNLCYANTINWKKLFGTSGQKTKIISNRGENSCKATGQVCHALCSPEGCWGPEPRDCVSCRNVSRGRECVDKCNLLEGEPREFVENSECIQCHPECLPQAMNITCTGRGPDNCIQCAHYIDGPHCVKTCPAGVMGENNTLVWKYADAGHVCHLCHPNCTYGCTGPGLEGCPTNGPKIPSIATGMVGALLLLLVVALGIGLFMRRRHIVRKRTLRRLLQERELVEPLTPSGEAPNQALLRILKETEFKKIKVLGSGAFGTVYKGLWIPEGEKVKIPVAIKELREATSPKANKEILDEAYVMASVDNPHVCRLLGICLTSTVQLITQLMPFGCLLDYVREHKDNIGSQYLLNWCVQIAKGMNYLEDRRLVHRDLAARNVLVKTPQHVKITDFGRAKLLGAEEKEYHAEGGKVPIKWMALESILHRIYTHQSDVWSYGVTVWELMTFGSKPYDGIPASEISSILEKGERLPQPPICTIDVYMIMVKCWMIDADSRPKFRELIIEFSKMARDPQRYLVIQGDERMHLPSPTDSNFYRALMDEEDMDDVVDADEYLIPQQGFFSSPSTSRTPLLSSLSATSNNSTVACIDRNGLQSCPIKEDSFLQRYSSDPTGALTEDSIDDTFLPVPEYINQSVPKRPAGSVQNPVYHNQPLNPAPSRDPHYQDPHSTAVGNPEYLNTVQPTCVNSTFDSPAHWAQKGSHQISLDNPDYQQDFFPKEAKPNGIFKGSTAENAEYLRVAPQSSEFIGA
- ASSAY METHOD TEXT: Inhibition of EGFR L858R mutant (unknown origin)
Please treat pKi as minus the base-10 logarithm of the molar concentration.

Record CC1(C)OCc2c(Nc3n[nH]c4c(Cl)cccc34)nc(-c3cn[nH]c3)nc21 ; system Epidermal growth factor receptor (Homo sapiens, UniProt P00533, L858R); pKi = 8.89

Record CC1(C)OCc2c(Nc3n[nH]c4c(Cl)cccc34)nc(-c3cn[nH]c3C(F)F)nc21 ; system Epidermal growth factor receptor (Homo sapiens, UniProt P00533, L858R); pKi = 8.47

Record CC1(C)OCc2c(Nc3n[nH]c4ccccc34)nc(-c3cn[nH]c3)nc21 ; system Epidermal growth factor receptor (Homo sapiens, UniProt P00533, L858R); pKi = 9.30

----------
- TEST TARGET: Epidermal growth factor receptor (Homo sapiens, UniProt P00533, L858R/T790M)
- Sequence (P00533 25-1210 T790M/L858R limits assumed): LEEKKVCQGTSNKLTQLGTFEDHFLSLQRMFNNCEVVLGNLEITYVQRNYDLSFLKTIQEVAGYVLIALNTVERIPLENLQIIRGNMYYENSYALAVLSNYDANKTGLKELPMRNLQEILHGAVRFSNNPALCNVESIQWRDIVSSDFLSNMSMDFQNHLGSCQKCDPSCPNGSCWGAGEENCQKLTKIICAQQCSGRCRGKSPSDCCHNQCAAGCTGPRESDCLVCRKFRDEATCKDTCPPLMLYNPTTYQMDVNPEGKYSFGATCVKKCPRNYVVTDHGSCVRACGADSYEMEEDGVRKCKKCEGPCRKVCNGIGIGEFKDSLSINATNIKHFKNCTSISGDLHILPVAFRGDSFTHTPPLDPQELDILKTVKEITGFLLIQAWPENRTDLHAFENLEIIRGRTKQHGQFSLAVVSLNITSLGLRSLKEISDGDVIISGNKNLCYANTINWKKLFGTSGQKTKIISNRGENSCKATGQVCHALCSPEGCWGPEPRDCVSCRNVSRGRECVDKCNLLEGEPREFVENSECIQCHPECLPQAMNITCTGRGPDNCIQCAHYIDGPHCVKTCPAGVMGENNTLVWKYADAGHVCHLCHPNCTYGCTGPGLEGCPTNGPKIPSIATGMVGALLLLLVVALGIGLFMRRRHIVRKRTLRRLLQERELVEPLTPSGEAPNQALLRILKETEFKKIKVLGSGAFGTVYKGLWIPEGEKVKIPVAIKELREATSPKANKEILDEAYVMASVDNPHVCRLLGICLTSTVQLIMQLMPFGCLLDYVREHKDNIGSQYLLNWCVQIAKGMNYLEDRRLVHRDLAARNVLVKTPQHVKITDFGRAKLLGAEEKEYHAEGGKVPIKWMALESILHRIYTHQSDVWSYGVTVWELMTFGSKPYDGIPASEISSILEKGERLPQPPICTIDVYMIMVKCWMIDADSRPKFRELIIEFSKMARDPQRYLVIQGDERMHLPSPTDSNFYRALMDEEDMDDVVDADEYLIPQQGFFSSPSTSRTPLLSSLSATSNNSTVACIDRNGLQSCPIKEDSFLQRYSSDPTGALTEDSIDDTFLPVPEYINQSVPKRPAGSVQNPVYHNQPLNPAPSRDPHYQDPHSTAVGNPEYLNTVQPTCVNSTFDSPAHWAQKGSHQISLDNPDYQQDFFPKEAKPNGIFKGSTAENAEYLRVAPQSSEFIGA
- ASSAY METHOD TEXT: Inhibition of EGFR T790M/L858R mutant autophosphorylation in human H1975 cells
For each record, write down the corresponding IC50.
# output: bare number, implied unit nM

Recorded IC50 (molecule CC1(C)OCc2c(Nc3n[nH]c4c(Cl)cccc34)nc(-c3cn[nH]c3C(F)F)nc21 ): 370

Recorded IC50 (molecule CC1(C)OCc2c(Nc3n[nH]c4ccccc34)nc(-c3cn[nH]c3)nc21 ): 600

Recorded IC50 (molecule Cn1nccc1-c1nc(Nc2n[nH]c3ccccc23)c2c(n1)C(C)(C)OC2 ): 3000

----------
- TEST TARGET: Epidermal growth factor receptor (Homo sapiens)
- ASSAY METHOD TEXT: Inhibition of EGFR T790M/deletion (746 to 750 residues) mutant (unknown origin)
- Format: protein assay
ASSAY READOUT: pKi
Please treat pKi as minus the base-10 logarithm of the molar concentration.

Recorded pKi (compound CC1(C)OCc2c(Nc3n[nH]c4ccccc34)nc(-c3cn[nH]c3)nc21 ): 8.80

Recorded pKi (compound Cn1nccc1-c1nc(Nc2n[nH]c3ccccc23)c2c(n1)C(C)(C)OC2 ): 7.67

Recorded pKi (compound CC1(C)OCc2c(Nc3n[nH]c4c(Cl)cccc34)nc(-c3cn[nH]c3)nc21 ): 8.89

Recorded pKi (compound CC1(C)OCc2c(Nc3n[nH]c4c(Cl)cccc34)nc(-c3cn[nH]c3C(F)F)nc21 ): 8.60

----------
- TEST TARGET: Epidermal growth factor receptor (Homo sapiens, UniProt P00533, L858R/T790M)
- ASSAY METHOD TEXT: Inhibition of EGFR T790M/L858R mutant (unknown origin)
ASSAY READOUT: Ki (µM)
# output: bare number, implied unit µM

Recorded Ki (molecule Cn1nccc1-c1nc(Nc2n[nH]c3ccccc23)c2c(n1)C(C)(C)OC2 ): 0.0343

Recorded Ki (molecule CC1(C)OCc2c(Nc3nsc4ccccc34)nc(-c3cn[nH]c3)nc21 ): 0.747

Recorded Ki (molecule CC1(C)OCc2c(Nc3n[nH]c4cc(F)ccc34)nc(-c3cn[nH]c3)nc21 ): 0.002

Recorded Ki (molecule CC1(C)OCc2c(Nc3c[nH]c4ccccc34)nc(-c3cn[nH]c3)nc21 ): 0.017

Recorded Ki (molecule CC1(C)OCc2c(Nc3n[nH]c4c(F)cccc34)nc(-c3cn[nH]c3)nc21 ): 0.003

Recorded Ki (molecule CN(c1nc(-c2cn[nH]c2)nc2c1COC2(C)C)c1n[nH]c2ccccc12 ): 0.519

Recorded Ki (molecule CC1(C)OCc2c(Nc3n[nH]c4cccc(F)c34)nc(-c3cn[nH]c3)nc21 ): 0.017

Source of measurements: ChEMBL document CHEMBL3758169
